Reported apparent KD of MS2 coat protein is given for each of the following sequences.
Test system: MS2 coat protein
Test: apparent KD of MS2 coat protein; higher = weaker reporter binding
Conditions: Eterna round: R107; input ligand: tryptophan 2.4 mM
Reply numerically in nM, unit not repeated.

These recorded examples may help you get a feel for the data.
INSERT INTO measurements (sequence_content, measured_attribute, measurement) VALUES
  ('ACAUGAGGAUCACCCAUGUAACCUAGGGAAGGAGCGGUGUAAGAGCCAGGUAGGUCGCCCACAUGUGGAUCACCCAUGGUGAGGG [#24 Same State - Arginine A]', 'apparent KD of MS2 coat protein', 26.6),
  ('GGAUAGGACACGGCCGCCACUAGCUAGGAUACUAGCAACAUUUCCUCACUUGAGGAUCACCCAAGUAGGACCGGGUGUCCUAUCG', 'apparent KD of MS2 coat protein', 182),
  ('GCCUCCAGCCGAAGGAGCGCUAGAAGGUGACAUGAGGAUCACCCAUGUGUGUGAUGUGGCUAGCAGGUAGGUCGCGGAGGAGGUU [Exclusion - Arginine B (Freestyle 20)]', 'apparent KD of MS2 coat protein', 89.8),
  ('GGGCCCGGGCGCGAGCCCGGGCCCAUUGAUACCAGUGAUAUAUGACGCCCUUGGCAGCGAAUCCUAACAUGAGGAUCACCCAUGU [5.H]', 'apparent KD of MS2 coat protein', 37.1),
  ('UGUUUGGUGCGCGAGUGUUGGAUAAUUGAUACCAGUGAAGAAGAGCGCCCUUGGCAGCGAAUCCUAACAUGAGGAUCACCCAUGU [5.U]', 'apparent KD of MS2 coat protein', 39);

Next sequence, apparent KD of MS2 coat protein to be filled in.
Task item: What value of apparent KD of MS2 coat protein on MS2 coat protein does UGUACCAUGUCGGCCGCCACUCAUGAUAAACAAGAGGAUCACCCUUGUAGCGUCAAAGACGCUAUGAGGACCGGGACAUGGUACU [TryBS Zipper 2] have?
Reply: 15.5

====

Reported apparent KD of MS2 coat protein is given for each of the following sequences.
Tested on: MS2 coat protein
Assay: apparent KD of MS2 coat protein; higher = weaker reporter binding
Conditions: Eterna round: R101; input ligand: none
Reply numerically in nM, unit not repeated.

INSERT INTO results (sequence_content, target_or_test_system, measured_attribute, measurement) VALUES
  ('GUCAGCUCGUGAGGAUAUACAUCACUGCUUCGGCAGUGUAUUAAGAUCACAUGAGGAUCACCCAUGUAGAAGGCACGAGCUGAU [#SameSwitchNG2InvertedNG3 NG2 A1] (puzzle (switch architecture): Exclusion NG 2)', 'MS2 coat protein', 'apparent KD of MS2 coat protein', 14.6);

Next sequence, apparent KD of MS2 coat protein to be filled in.
Task item: Which apparent KD of MS2 coat protein value is on record for AGGUAUACUUAGAAGGCGUGGACGAAACGUCCACGAGGAUAUGAGGAUCACCCAUAUCAGGUCAGCCUGCAAAGCAGGCUGACC [#SharedSequence - IExNG1: 8-2] (puzzle (switch architecture): Inverted Exclusion NG 1) ?
Reply: 12.2

====

Tested on: MS2 coat protein
Assay: apparent KD of MS2 coat protein; designed switch direction (-1 OFF switch, 1 ON switch): 1; higher = weaker reporter binding
Conditions: input ligand: FMN 200 uM
Reported apparent KD of MS2 coat protein is given for each of the following sequences.
Reply numerically in nM, unit not repeated.

These recorded examples may help you get a feel for the data.
INSERT INTO assay_data (sequence_content, measurement) VALUES
  ('GAGUGGAGGAGAGGAUAUACAAUGAUAAUCACAGUAGAAGGUUCUAACAUGAGGAUCACCCAUGUAGGACUAUUCCUGAGAGAA [Parity 49 - Jieux - Same State NG 1] (Eterna round: R96, puzzle: Same State NG 1)', 10.2),
  ('UUAUCUCAGACAUGAGGAUCACCCAUGUGGUUUUGACUUAGACAGGAUAUAGUAGUAUCGAAAUACUAGAAGGGUCAUUUUAUU [JR_SSNG3_Sub022] (Eterna round: R96, puzzle: Same State NG 3)', 91.3),
  ('UGCCUGAGUCGAGGAUAUUAUGGAUCAAUUAAUACAUGAGGAUCACCCAUGUAAUUAAUUUAACAUGAGAAGGUGACUCAGGCA [SSNG2/10-B2] (Eterna round: R96, puzzle: Same State NG 2)', 14.9),
  ('AAAAUGCGGGAAGGAUAUGGGAAAGGAAGUGUACCAGAAGGUCUCGCGGCCAAGGACAUGAGGAUCACCCAUGUUAACGCCCGA [PowerStrip SSNG 1.8] (Eterna round: R96, puzzle: Same State NG 1)', 204),
  ('GGUACUAUCACAGGAUAUGCUAUCCUUUGGGUAGCAGAAGGGUGGUACAUGAGGAUCACCCAUGUGGUGCCAGGGCGUGAGCCC [JL SSNG1 1.97] (Eterna round: R96, puzzle: Same State NG 1)', 200),
  ('UAAGGACAUGAGGAUCACCCAUGUGCUUCAUAUGGAGAAUCUCAGGAUAUGCUGAGGAUCACCCAGCAGAAGGGAGAUCCGAGG (Eterna round: R96, puzzle: Same State NG 3)', 71.9),
  ('UCGGGCGUACUUGCUGACAUGAGGAUCACCCAUGUAAAUGGGAAGGAUAUGGUUCCGUUUCGGUUCCAGAAGGUCCUGGGUGCU [salish99_SSNG3_r04_311] (Eterna round: R96, puzzle: Same State NG 3)', 886),
  ('GCAUGAGAGAUAGGAUAUCGUGUACCUACAUGUGACAUGAGGAUCACCCAUGUGGUAAGUAUGAGCGAGAAGGAUCCGAUAUGU [salish99_SSNG2_r04_1002] (Eterna round: R96, puzzle: Same State NG 2)', 26.6);

Next sequence, apparent KD of MS2 coat protein to be filled in.
Task item: What value of apparent KD of MS2 coat protein on MS2 coat protein does GAGGGACAGACCAACAUGAGGAUCACCCAUGUCCUCGCAGGUCAGGAUAUUAUUAGGAUCACCAGUGAGAAGGGACGGUGAAGG (Eterna round: R96, puzzle: Same State NG 3) have?
Reply: 366

====

Reported apparent KD of MS2 coat protein is given for each of the following sequences.
Tested on: MS2 coat protein
Assay: apparent KD of MS2 coat protein; designed switch direction (-1 OFF switch, 1 ON switch): 1; higher = weaker reporter binding
Settings: input ligand: FMN 200 uM
Reply numerically in µM, unit not repeated.

These recorded examples may help you get a feel for the data.
INSERT INTO results (sequence_content, target_or_test_system, units_label, measurement) VALUES
  ('UAUCGUUUGAUAGGAUAUCGCUAUACAUGAGGAUCACCCAUGUUUACCACGCUGGUUUUUCAUACCGAGAAGGAUUCUGAUGAG [salish99_SSNG02_r04_005] (Eterna round: R96, puzzle: Same State NG 2)', 'MS2 coat protein', 'µM', 0.0363),
  ('CUCGUAUCGGGAGGAUAUGGUGCCUUGUUGGUGCUAGAAGGUCCAACAUGAGGAUCACCCAUGUGCGAGUGGUUGAGAGACCGG [SS NG10LRO15] (Eterna round: R96, puzzle: Same State NG 1)', 'MS2 coat protein', 'µM', 0.336),
  ('AAUUAAGAUCUAGGAUAUCACGUCGAAUAGACGUGAGAAGGAGAUCAUAACAUGAGGAUCACCCAUGUAUUACAUGAAUUAAUU [SSNG1/6-B1] (Eterna round: R96, puzzle: Same State NG 1)', 'MS2 coat protein', 'µM', 0.028),
  ('CCGAUUUAUGGAGGAUAUGGAGCCUUAUUGGCUCCAGAAGGUCAAUAAACAUGAGGAUCACCCAUGUCGGCGGUCAAUAGACCG [Eli NG1ss - 71] (Eterna round: R96, puzzle: Same State NG 1)', 'MS2 coat protein', 'µM', 0.103);

Next sequence, apparent KD of MS2 coat protein to be filled in.
Task item: Which apparent KD of MS2 coat protein value is on record for GGUAGGUUACUACCAGACAUGAGGAUCACCCAUGUAAGUGGGAAGGAUAUGGUACCGUUUCGGUACCAGAAGGUCCUAUGUAAG [JL SSNG3 1.45] (Eterna round: R96, puzzle: Same State NG 3) ?
Reply: 0.269

====

System: MS2 coat protein
Test: apparent KD of MS2 coat protein; designed switch direction (-1 OFF switch, 1 ON switch): -1; higher = weaker reporter binding
Conditions: input ligand: FMN 200 uM
Measured Attribute: apparent KD of MS2 coat protein (nM)
Reply numerically in nM, unit not repeated.

These recorded examples may help you get a feel for the data.
INSERT INTO assay_data (sequence_content, measured_attribute, measurement) VALUES
  ('UUUUGGCAAGCGAGAUCCCACAUGAGGAUCACCCAUGUUGACCAUGGUUUCCAUGGUCAUUUUGCUCGUCUUGUGUG [jl TITIN mod 1] (Eterna round: R97, puzzle: Sensor, turn-off variant 1)', 'apparent KD of MS2 coat protein', 31.3),
  ('UCGACGUCGUCAGGAUAUAGUCUUAAUGUCAUGCUUUUGUUCGUACAUGAGGAUCACCCAUGUGGCUAGAAGGGACUAAAGAUU [JR_ExcNG2_Sub015] (Eterna round: R96, puzzle: Exclusion NG 2)', 'apparent KD of MS2 coat protein', 12.3),
  ('UUCACAUGGACAUAAGAUCACAUGAGGAUCACCCAUGUGAAUAACAAGCUUUUUGUUCGUCUUAUGUCCAAUAAUAG [Stov1/14-B2] (Eterna round: R97, puzzle: Sensor, turn-off variant 1)', 'apparent KD of MS2 coat protein', 13.7),
  ('CGGCGACAUGAGGAUCACCCAUGUGAGGAUAUGACGGGAAAAGCGUGAGCAGUUUGUAUCAGAAGGCGGGUAGG [salish99_ex1_r4_080] (Eterna round: R97, puzzle: Exclusion 1)', 'apparent KD of MS2 coat protein', 37.2),
  ('AAUCAACAUGAGGAUCACCCAUGUGAGGAUAUACGCAUGCAUGCAUGCAUGCAUGCAAGUAGAAGGCACAAUAC [Design #17] (Eterna round: R97, puzzle: Exclusion 1)', 'apparent KD of MS2 coat protein', 42),
  ('CUGAGCUGAGGAUAUACAUGAGGAUCACCCAUGUAAAGUAGCUUGCGUACAGGCAGAUGUAGAAGGCAGUUCGG [Mod of JL 2 - Jieux - Exclusion 3] (Eterna round: R97, puzzle: Exclusion 3)', 'apparent KD of MS2 coat protein', 34.7);

Task item: Which apparent KD of MS2 coat protein value is on record for CGUCGACAUGUAGGAUAUCUGCACGAUUAGUGCAGAGAAGGACAUGAGGAUCACCCAUGUAGAUCACGACGAAUUAAUUUAAUU [ENG1/6-C1] (Eterna round: R96, puzzle: Exclusion NG 1) ?
Reply: 476

Task item: Which apparent KD of MS2 coat protein value is on record for UUAAUUAAUUAAGGCUGAAGAUCACAUGAGGAUCACCCAUGUAAGGAUAUCAGCUCGUUUAGAGCUGAGAAGGUACAUGCAGCC [ExNG3/18-B2] (Eterna round: R96, puzzle: Exclusion NG 3) ?
Reply: 160

Task item: Which apparent KD of MS2 coat protein value is on record for UGAUUGAUUAACAGAUUAUACAUGAGGAUCACCCAUGUAGGUCCUACGUGCCCUUUAUGCAGCUCGUCUUAUUCCCA [Sensor-V1 #70] (Eterna round: R97, puzzle: Sensor, turn-off variant 1) ?
Reply: 53.6

Task item: Which apparent KD of MS2 coat protein value is on record for UACAUGAGGAUCACCCAUGUUUUGUCGUGUAUGGUAUUUAUCUAGGAUAUCAAGUUAUUUAGUUAUGAGAAGGAGAAUAUUAAU [JMF's solution 35] (Eterna round: R96, puzzle: Exclusion NG 3) ?
Reply: 31.5

Task item: Which apparent KD of MS2 coat protein value is on record for UCACCUGGGUCAGGAUAUAAAGGGUCAGGAAGUUUAGAAGGGACUUAGGACAUGAGGAUCACCCAUGUUGAGAACUCGUUUGUA [Eternabot solution 25] (Eterna round: R96, puzzle: Exclusion NG 1) ?
Reply: 46.2
